Biological target: cloned human MC4R (Homo sapiens)
Construct: made in house; host or cells: Hi5 insect cells (baculovirus infection); membrane preparation
Sequence (P32245 whole entry): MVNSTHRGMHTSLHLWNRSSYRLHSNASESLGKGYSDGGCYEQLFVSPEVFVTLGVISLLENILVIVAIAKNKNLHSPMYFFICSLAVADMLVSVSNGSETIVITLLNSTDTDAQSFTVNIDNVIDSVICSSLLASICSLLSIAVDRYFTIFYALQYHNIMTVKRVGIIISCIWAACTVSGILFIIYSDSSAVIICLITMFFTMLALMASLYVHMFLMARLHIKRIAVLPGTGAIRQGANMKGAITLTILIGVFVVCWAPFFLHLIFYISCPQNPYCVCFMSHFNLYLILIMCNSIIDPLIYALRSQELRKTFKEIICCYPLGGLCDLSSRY
Test: Membrane binding assay: competitive inhibition of [125I]NDP-α-MSH binding
pIC50: −log10 of the molar value.
ENDPOINT LABEL: pIC50

Consider the compound N[C@@H](Cc1ccc(OCc2ccccc2)cc1)C(=O)N1CCCN(Cc2ccc(Br)cc2)CC1 [Example 56] and give its measured pIC50. < 5.52

###

Target: cloned human MC4R (Homo sapiens)
Construct: made in house; host or cells: Hi5 insect cells (baculovirus infection); membrane preparation
Test: Membrane binding assay: competitive inhibition of [125I]NDP-α-MSH binding
Conditions: read-out: MC4R IC50
pIC50: −log10 of the molar value.
Item-by-item account of pIC50

Look over these answered cases.
N[C@@H](Cc1ccc(OCc2ccccc2)cc1)C(=O)N1CCCN(Cc2cccc(Oc3cc(Cl)cc(Cl)c3)c2)CC1: > 5.82
COc1ccc(COc2ccc(C[C@H](N)C(=O)N3CCN(Cc4cccc(Cl)c4Cl)CC3)cc2)cc1: < 5.52
CCOc1ccc(-c2ccc(C[C@H](N)C(=O)N3CCN(Cc4cccc(Cl)c4Cl)CC3)cc2)cc1: > 5.82
N[C@@H](Cc1ccc(OCc2ccccc2)cc1)C(=O)N1CCN(CCCc2ccccc2)CC1: < 5.52
N[C@@H](Cc1ccc(OCc2ccccc2)cc1)C(=O)N1CCN(Cc2ccccc2[N+](=O)[O-])CC1: < 5.52

So what's the measured pIC50 for this one? N[C@@H](Cc1ccc(OCc2ccccc2)cc1)C(=O)N1CCN(C2CCCC2)CC1 < 5.52

Same question, N[C@@H](Cc1ccc(OCc2ccccc2)cc1)C(=O)N1CCN(Cc2ccc3ccccc3c2)CC1 this time > 5.82

Also check N[C@@H](Cc1ccc(OCc2ccccc2)cc1)C(=O)N1CCCN(Cc2ccc(F)cc2)CC1 < 5.52

Another molecule: N[C@@H](Cc1ccc(OCCc2ccccc2Cl)cc1)C(=O)N1CCN(Cc2cccc(Cl)c2Cl)CC1 > 5.82

Further, for COc1ccc2ccccc2c1CN1CCCN(C(=O)[C@@H](N)Cc2ccc(OCc3ccccc3)cc2)CC1 ? 5.52 to 5.82
